# Test system: 282377-053-R-J1-PDC complex spheroids, viability
# experiment: Anticancer human tumor 282377-053-R-J1-PDC patient-derived colon adenocarcinoma cell line growth inhibition [GQUAD]
# settings: second compound 0.316 µM; first compound 3.16 µM; hits give low values
So basically, if viability, T/C comes in under 80% it's TRUE, and if it's 80% or more it's FALSE.

{"columns": ["compound", "classification"],
 "data": [
  ["Nc1ccn(C2OC(CO)C(O)C2(F)F)c(=O)n1 (stereo unspecified) + Cc1[nH]c2ccc(F)cc2c1-c1nc2c3cccnc3c3ncccc3c2[nH]1", "TRUE"],
  ["COc1ccc([C@@H](O)c2cc(-c3ncnc4cc(N5CCOCC5)ccc34)c(F)cc2Cl)nn1 + Cc1cnc(CNC(=O)c2c(=O)c3ccc(N4CCCN(C)CC4)nc3n3c2sc2ccccc23)cn1", "TRUE"],
  ["C=CC(=O)N1CCN(c2nc(=O)n(-c3c(C)ccnc3C(C)C)c3nc(-c4c(O)cccc4F)c(F)cc23)C(C)C1 (stereo unspecified) + Cc1cnc(CNC(=O)c2c(=O)c3ccc(N4CCCN(C)CC4)nc3n3c2sc2ccccc23)cn1", "FALSE"],
  ["O=C(c1cc(Cc2n[nH]c(=O)c3ccccc23)ccc1F)N1CCN(C(=O)C2CC2)CC1 + Cc1cnc(CNC(=O)c2c(=O)c3ccc(N4CCCN(C)CC4)nc3n3c2sc2ccccc23)cn1", "FALSE"],
  ["C=CCn1c(=O)c2cnc(Nc3ccc(N4CCN(C)CC4)cc3)nc2n1-c1cccc(C(C)(C)O)n1 + Cc1cnc(CNC(=O)c2c(=O)c3ccc(N4CCCN(C)CC4)nc3n3c2sc2ccccc23)cn1", "TRUE"],
  ["CC(C)(O)C1CCC(Nc2ccc3ncc(-c4cccc(C(F)(F)F)c4)n3n2)CC1 (stereo unspecified) + Cc1cnc(CNC(=O)c2c(=O)c3ccc(N4CCCN(C)CC4)nc3n3c2sc2ccccc23)cn1", "TRUE"],
  ["O=c1[nH]cc(F)c(=O)[nH]1 + Cc1cnc(CNC(=O)c2c(=O)c3ccc(N4CCCN(C)CC4)nc3n3c2sc2ccccc23)cn1", "TRUE"],
  ["CC1COCCN1c1cc(C2(O)CC3CCC(C2)O3)c2cnn(-c3ccn[nH]3)c2n1 (stereo unspecified) + Cc1cnc(CNC(=O)c2c(=O)c3ccc(N4CCCN(C)CC4)nc3n3c2sc2ccccc23)cn1", "TRUE"],
  ["CC(C)n1c(=O)n(C)c2cnc3cc(F)c(-c4ccc(OCCCN5CCCCC5)nc4)cc3c21 + Cc1[nH]c2ccc(F)cc2c1-c1nc2c3cccnc3c3ncccc3c2[nH]1", "FALSE"],
  ["COc1ccc([C@@H](O)c2cc(-c3ncnc4cc(N5CCOCC5)ccc34)c(F)cc2Cl)nn1 + Cc1[nH]c2ccc(F)cc2c1-c1nc2c3cccnc3c3ncccc3c2[nH]1", "TRUE"],
  ["O=C(c1cc(Cc2n[nH]c(=O)c3ccccc23)ccc1F)N1CCN(C(=O)C2CC2)CC1 + Cc1[nH]c2ccc(F)cc2c1-c1nc2c3cccnc3c3ncccc3c2[nH]1", "FALSE"]
]}

###

# Tested on: 282377-053-R-J1-PDC complex spheroids, viability
# experiment: Anticancer human tumor 282377-053-R-J1-PDC cell line growth inhibition [GQUAD];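 also: spheroids exposed to compounds for 7 days before readout; percent of vehicle DMSO control viability with 100% = untreated-like growth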
# settings: second compound 3.16 µM; first compound 0.316 µM; hits give low values
So basically, if viability, T/C comes in under 60% it's Criterion met, and if it's 60% or more it's Criterion not met.

{"columns": ["compound", "classification"],
 "data": [
  ["C#Cc1c(F)ccc2cc(O)cc(-c3ncc4c(N5CC6CCC(C5)N6)nc(OCC56CCCN5CC(F)C6)nc4c3F)c12 (centres undefined) + Cc1[nH]c2ccc(F)cc2c1-c1nc2c3cccnc3c3ncccc3c2[nH]1", "Criterion met"],
  ["C=CC(=O)N1CCN(c2nc(=O)n(-c3c(C)ccnc3C(C)C)c3nc(-c4c(O)cccc4F)c(F)cc23)C(C)C1 (centres undefined) + Cc1cnc(CNC(=O)c2c(=O)c3ccc(N4CCCN(C)CC4)nc3n3c2sc2ccccc23)cn1", "Criterion not met"],
  ["CC(C)(O)C1CCC(Nc2ccc3ncc(-c4cccc(C(F)(F)F)c4)n3n2)CC1 (centres undefined) + Cc1cnc(CNC(=O)c2c(=O)c3ccc(N4CCCN(C)CC4)nc3n3c2sc2ccccc23)cn1", "Criterion met"],
  ["CC(C)(O)C1CCC(Nc2ccc3ncc(-c4cccc(C(F)(F)F)c4)n3n2)CC1 (centres undefined) + CN(C)c1ccc(Nc2c3ccc(NC(=O)CCN4CCCC4)cc3nc3cc(NC(=O)CCN4CCCC4)ccc23)cc1", "Criterion not met"],
  ["Nc1ccn(C2OC(CO)C(O)C2(F)F)c(=O)n1 (centres undefined) + Cc1[nH]c2ccc(F)cc2c1-c1nc2c3cccnc3c3ncccc3c2[nH]1", "Criterion met"],
  ["Cc1[nH]c2ccccc2c1CCNCc1ccc(/C=C/C(=O)NO)cc1 + Cc1cnc(CNC(=O)c2c(=O)c3ccc(N4CCCN(C)CC4)nc3n3c2sc2ccccc23)cn1", "Criterion met"],
  ["CC1COCCN1c1cc(C2(O)CC3CCC(C2)O3)c2cnn(-c3ccn[nH]3)c2n1 (centres undefined) + CN(C)c1ccc(Nc2c3ccc(NC(=O)CCN4CCCC4)cc3nc3cc(NC(=O)CCN4CCCC4)ccc23)cc1", "Criterion not met"],
  ["C=CCn1c(=O)c2cnc(Nc3ccc(N4CCN(C)CC4)cc3)nc2n1-c1cccc(C(C)(C)O)n1 + CN(C)c1ccc(Nc2c3ccc(NC(=O)CCN4CCCC4)cc3nc3cc(NC(=O)CCN4CCCC4)ccc23)cc1", "Criterion not met"],
  ["O=C(NO)c1cnc(N2CCN(S(=O)(=O)c3ccc4ccccc4c3)CC2)nc1 + CN(C)c1ccc(Nc2c3ccc(NC(=O)CCN4CCCC4)cc3nc3cc(NC(=O)CCN4CCCC4)ccc23)cc1", "Criterion not met"]
]}

###

Documented viability, T/C across a set of compounds
# System: 282377-053-R-J1-PDC complex spheroids, viability
# experiment: Anticancer human tumor 282377-053-R-J1-PDC cell line growth inhibition [GQUAD];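 also: spheroids exposed to compounds for 7 days before readout; percent of vehicle DMSO control viability with 100% = untreated-like growth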
# settings: second compound 3.16 µM; first compound 3.16 µM; hits give low values

{"columns": ["compound", "viability, T/C [%]"],
 "data": [
  ["CC(=O)O[C@H]1C(=O)[C@@]2(C)[C@H]([C@H](OC(=O)c3ccccc3)[C@]3(O)C[C@H](OC(=O)[C@H](O)[C@@H](NC(=O)c4ccccc4)c4ccccc4)C(C)=C1C3(C)C)[C@]1(OC(C)=O)CO[C@@H]1C[C@@H]2O + Cc1cnc(CNC(=O)c2c(=O)c3ccc(N4CCCN(C)CC4)nc3n3c2sc2ccccc23)cn1", 28.4],
  ["CC(C)n1c(=O)n(C)c2cnc3cc(F)c(-c4ccc(OCCCN5CCCCC5)nc4)cc3c21 + Cc1cnc(CNC(=O)c2c(=O)c3ccc(N4CCCN(C)CC4)nc3n3c2sc2ccccc23)cn1", 53.5],
  ["COc1cc(C2c3cc4c(cc3C(OC3OC5COC(C)OC5C(O)C3O)C3COC(=O)C23)OCO4)cc(OC)c1O (stereo not given) + Cc1[nH]c2ccc(F)cc2c1-c1nc2c3cccnc3c3ncccc3c2[nH]1", 24.8],
  ["CCCS(=O)(=O)Nc1ccc(F)c(C(=O)c2c[nH]c3ncc(-c4ccc(Cl)cc4)cc23)c1F + Cc1[nH]c2ccc(F)cc2c1-c1nc2c3cccnc3c3ncccc3c2[nH]1", 9.06],
  ["O=C(c1cc(Cc2n[nH]c(=O)c3ccccc23)ccc1F)N1CCN(C(=O)C2CC2)CC1 + Cc1[nH]c2ccc(F)cc2c1-c1nc2c3cccnc3c3ncccc3c2[nH]1", 69.8],
  ["Nc1ccn(C2OC(CO)C(O)C2(F)F)c(=O)n1 (stereo not given) + CN(C)c1ccc(Nc2c3ccc(NC(=O)CCN4CCCC4)cc3nc3cc(NC(=O)CCN4CCCC4)ccc23)cc1", 38.5],
  ["COc1ccc([C@@H](O)c2cc(-c3ncnc4cc(N5CCOCC5)ccc34)c(F)cc2Cl)nn1 + Cc1cnc(CNC(=O)c2c(=O)c3ccc(N4CCCN(C)CC4)nc3n3c2sc2ccccc23)cn1", 41.5],
  ["C#Cc1c(F)ccc2cc(O)cc(-c3ncc4c(N5CC6CCC(C5)N6)nc(OCC56CCCN5CC(F)C6)nc4c3F)c12 (stereo not given) + Cc1[nH]c2ccc(F)cc2c1-c1nc2c3cccnc3c3ncccc3c2[nH]1", 1.91],
  ["COc1ccc([C@@H](O)c2cc(-c3ncnc4cc(N5CCOCC5)ccc34)c(F)cc2Cl)nn1 + CN(C)c1ccc(Nc2c3ccc(NC(=O)CCN4CCCC4)cc3nc3cc(NC(=O)CCN4CCCC4)ccc23)cc1", 102],
  ["CC1COCCN1c1cc(C2(S(C)(=N)=O)CC2)nc(-c2ccnc3[nH]ccc23)n1 (stereo not given) + Cc1cnc(CNC(=O)c2c(=O)c3ccc(N4CCCN(C)CC4)nc3n3c2sc2ccccc23)cn1", 52.2]
]}

Numbers sourced from PubChem BioAssay AID2060501.
